The reported numbers originate from the supplement of paper PMC13380429.

- Test system: Calu-3
- test_details: cell viability relative to DMSO; higher = less toxic
- measurement_setup: 72 h; 10000 nM
Sorting guide: entries reporting cell viability beneath 90% go in the true (1) pile, the rest go in the false (0) pile.

Sample answers from the record:
INSERT INTO measurements (compound, class) VALUES
  ('COc1cc2/c(=N/c3ccc(Br)cc3F)nc[nH]c2cc1OCC1CCN(C)CC1', 'true (1)'),
  ('c1ccc(COCCCc2c[nH]cn2)cc1', 'false (0)'),
  ('COc1cc2nc(N3CCC(N4CCCCC4)CC3)nc(NC3CCCCCC3)c2cc1OC', 'true (1)'),
  ('COc1ccc(/C=C\c2cc(OC)c(OC)c(OC)c2)cc1OP(=O)(O)O', 'true (1)');

# evaluate next
Does NCCc1cc(O)c(O)cc1O have cell viability strictly under 90%?
false (0)

====

- Test system: HepG2
- test_details: cell viability relative to DMSO; higher = less toxic
- measurement_setup: 72 h; 1 nM
value_type: cell viability (%)
Note: unit % is implicit; provide only the numeric part.

Reference set, count: 5
INSERT INTO results (compound, recorded_value) VALUES
  ('Cc1ccc2c(Br)cc(Br)c(OC(=O)c3ccccc3)c2n1 [broxaldine]', 111),
  ('CCCNC(=O)Nc1ccc(Oc2ncnc3cc(OC)c(OC)cc23)cc1Cl [KRN-633]', 103),
  ('C[C@]12C=CC(=O)C=C1CC[C@@H]1[C@@H]2[C@@H](O)C[C@@]2(C)[C@H]1CC[C@]2(O)C(=O)COC(=O)CCC(=O)O [prednisolone-hemisuccinate]', 112),
  ('COc1ccc(Cc2nccc3cc(OC)c(OC)cc23)cc1OC [papaverine]', 111),
  ('CCCCCCCC/C=C/C(=O)O [trans-2-undecenoic-acid]', 106);

Item Fc1ccc(CN2CCC(Nc3ccc(C(F)(F)F)nn3)CC2)cc1F : provide cell viability
90.1

Item C=CCNC1=C2C[C@@H](C)C[C@H](OC)[C@H](O)[C@@H](C)/C=C(\C)[C@H](OC(N)=O)[C@@H](OC)/C=C\C=C(/C)C(=O)NC(=CC1=O)C2=O [tanespimycin] : provide cell viability
113

Item CCCCCCCCCCCCCCCCCCCCCCCCCCCCO [1-octacosanol] : provide cell viability
103

Item OCCn1cc(-c2ccc3c(c2)CC/C3=N\O)c(-c2ccncc2)n1 [GDC-0879] : provide cell viability
90.6

Item CSCC[C@H](NC(=O)[C@H](Cc1ccccc1)NC(=O)CNC(=O)CNC(=O)[C@@H](N)Cc1ccc(O)cc1)C(=O)O [metenkephalin] : provide cell viability
96.6

Item CCS(=O)(=O)N(C)[C@H]1c2cc(C#N)ccc2OC(C)(C)[C@@H]1O [chromanol-293B-(-)-[3R,4S]] : provide cell viability
104

====

- Tested on: Caco-2
- test_details: drug sensitivity score (DSS) for viability; higher = more toxic; extreme values may be limits of the assay
- measurement_setup: 72 h
Let's look at some compounds and their measured drug sensitivity score.
Please give only the number in your answer, with no unit.

INSERT INTO measurements (compound, value_type, recorded_value) VALUES
  ('Cc1[nH]c(=O)c(C#N)cc1-c1ccncc1 [milrinone]', 'drug sensitivity score', 0.9),
  ('CN1CCC(=C2c3ccccc3Sc3ccccc32)CC1 [pimethixene]', 'drug sensitivity score', 0),
  ('Cc1sc(N)c(C(=O)c2cccc(C(F)(F)F)c2)c1C', 'drug sensitivity score', 0);

Item O=c1[nH]cnc2ccccc12 [4-HQN] : provide drug sensitivity score
0

Item CC(C)(O)CC(=O)NCCn1ccc2ncnc(Nc3ccc(Oc4cccc(C(F)(F)F)c4)c(Cl)c3)c21 [TAK-285] : provide drug sensitivity score
2.9

Item COc1c(C)c(C(=O)c2ccc(N)c(C(=O)O)c2)n2ccccc12 : provide drug sensitivity score
0

Item CCCCCCCC/C=C/C(=O)O [trans-2-undecenoic-acid] : provide drug sensitivity score
0

Item N#C/C(=C\c1ccc(O)c(O)c1)C(=O)Nc1ccccc1 [tyrphostin-AG-494] : provide drug sensitivity score
0.2

Item CN(CCCN1c2ccccc2CCc2ccccc21)CC(=O)c1ccc(Cl)cc1 [lofepramine] : provide drug sensitivity score
0

Item COc1ccc(Cc2nccc3cc(OC)c(OC)cc23)cc1OC [papaverine] : provide drug sensitivity score
1.7

Item CN1CCCN=C1/C=C/c1cccs1 [pyrantel-pamoate] : provide drug sensitivity score
0

Item CC(C)=CCC/C(C)=C/CC/C(C)=C/CCC(=O)OC/C=C(\C)CCC=C(C)C [geranyl-farnesylacetate] : provide drug sensitivity score
0

Item Cc1ccc2c(c1)=C(c1ccccc1)C(C1=NN(C(=O)CCC(=O)O)C(c3ccc(Br)cc3)C1)C(=O)N=2 (stereo not drawn) [DQP-1105] : provide drug sensitivity score
0
